Test system: Escherichia coli TOP10
Assay: shrunken log2 fold change of peptide-encoding DNA abundance (4.5 h post-induction vs induction); higher = less antimicrobial activity (less host growth inhibition)
Conditions: time post-induction: 4.5 h; library: site-saturation at positions 5, 18, 19, 20
Below is a list of entries, each paired with its recorded shrunken log2 fold change value.
In your answer, state the number alone without any accompanying words.

primary.sequence: RRIRQRPPRLPRPRPRPMHTPRP
numeric.readout: -0.026
--
primary.sequence: RRIRIRPPRLPRPRPRPINDPRP
numeric.readout: -0.657
--
primary.sequence: RRIRMRPPRLPRPRPRPYNPPRP
numeric.readout: -0.21
--
primary.sequence: RRIRIRPPRLPRPRPRPLIAPRP
numeric.readout: -0.24
--
primary.sequence: RRIRQRPPRLPRPRPRPEEHPRP
numeric.readout: -0.0135

"RRIRTRPPRLPRPRPRPRYLPRP" has a reported shrunken log2 fold change of -0.131

"RRIRRRPPRLPRPRPRPFYWPRP" has a reported shrunken log2 fold change of -0.34

"RRIRERPPRLPRPRPRPKWPPRP" has a reported shrunken log2 fold change of 0.016

"RRIRVRPPRLPRPRPRPSPIPRP" has a reported shrunken log2 fold change of -0.324

"RRIRRRPPRLPRPRPRPHILPRP" has a reported shrunken log2 fold change of -0.68

====

System: Escherichia coli TOP10
Experiment: shrunken log2 fold change of peptide-encoding DNA abundance (4.5 h post-induction vs induction); higher = less antimicrobial activity (less host growth inhibition)
Settings: time post-induction: 4.5 h; library: site-saturation at positions 5, 18, 19, 20
Decide by shrunken log2 fold change: equal to or exceeding -0.4 means yes, less means no.

Example cases with answers are listed next.
primary.sequence: RRIRFRPPRLPRPRPRPFCHPRP
assigned.label: no
//
primary.sequence: RRIRQRPPRLPRPRPRPHLGPRP
assigned.label: yes

query: Textbook exercise: given the entry "RRIRQRPPRLPRPRPRPTCDPRP" , state whether its shrunken log2 fold change is greater than or equal to -0.4.
result: yes

query: Textbook exercise: given the entry "RRIRFRPPRLPRPRPRPQKPPRP" , state whether its shrunken log2 fold change is greater than or equal to -0.4.
result: yes

query: Textbook exercise: given the entry "RRIRDRPPRLPRPRPRPIEDPRP" , state whether its shrunken log2 fold change is greater than or equal to -0.4.
result: yes

query: Textbook exercise: given the entry "RRIRIRPPRLPRPRPRPTYQPRP" , state whether its shrunken log2 fold change is greater than or equal to -0.4.
result: no

query: Textbook exercise: given the entry "RRIRTRPPRLPRPRPRPNQNPRP" , state whether its shrunken log2 fold change is greater than or equal to -0.4.
result: yes

query: Textbook exercise: given the entry "RRIRSRPPRLPRPRPRPFIFPRP" , state whether its shrunken log2 fold change is greater than or equal to -0.4.
result: yes

query: Textbook exercise: given the entry "RRIRDRPPRLPRPRPRPYRSPRP" , state whether its shrunken log2 fold change is greater than or equal to -0.4.
result: yes

====

Test system: Escherichia coli TOP10
Assay: shrunken log2 fold change of peptide-encoding DNA abundance (4.5 h post-induction vs induction); higher = less antimicrobial activity (less host growth inhibition)
Conditions: time post-induction: 4.5 h; library: site-saturation at positions 5, 18, 19, 20
Decide by shrunken log2 fold change: equal to or exceeding -0.2 means Satisfied, less means Not satisfied.

Example cases with answers are listed next.
primary.sequence: RRIRYRPPRLPRPRPRPQVWPRP
assigned.label: Satisfied

primary.sequence: RRIRIRPPRLPRPRPRPYVGPRP
assigned.label: Not satisfied

primary.sequence: RRIRFRPPRLPRPRPRPYPNPRP
assigned.label: Satisfied

primary.sequence: RRIRCRPPRLPRPRPRPGQTPRP
assigned.label: Satisfied

primary.sequence: RRIRLRPPRLPRPRPRPGLSPRP
assigned.label: Satisfied

primary.sequence: RRIRPRPPRLPRPRPRPMSYPRP
assigned.label: Satisfied

query: Textbook exercise: given the entry "RRIRRRPPRLPRPRPRPYKDPRP" , state whether its shrunken log2 fold change is greater than or equal to -0.2.
result: Not satisfied

====

Below is a list of entries, each paired with its recorded shrunken log2 fold change value.
Tested on: Escherichia coli TOP10
Assay: shrunken log2 fold change of peptide-encoding DNA abundance (4.5 h post-induction vs induction); higher = less antimicrobial activity (less host growth inhibition)
Conditions: time post-induction: 4.5 h; library: site-saturation at positions 5, 18, 19, 20
In your answer, state the number alone without any accompanying words.

Here's what some known entries look like.
primary.sequence: RRIRIRPPRLPRPRPRPNASPRP
numeric.readout: 0.109

primary.sequence: RRIRERPPRLPRPRPRPAHDPRP
numeric.readout: -0.181

primary.sequence: RRIRNRPPRLPRPRPRPLGAPRP
numeric.readout: 0.413

"RRIRLRPPRLPRPRPRPDEYPRP" has a reported shrunken log2 fold change of -0.000921

"RRIRGRPPRLPRPRPRPAAFPRP" has a reported shrunken log2 fold change of 0.724

====

System: Escherichia coli TOP10
Test: shrunken log2 fold change of peptide-encoding DNA abundance (4.5 h post-induction vs induction); higher = less antimicrobial activity (less host growth inhibition)
Conditions: time post-induction: 4.5 h; library: site-saturation at positions 5, 18, 19, 20
Below is a list of entries, each paired with its recorded shrunken log2 fold change value.
In your answer, state the number alone without any accompanying words.

primary.sequence: RRIRFRPPRLPRPRPRPFMKPRP
shrunken log2 fold change: 1.71
--
primary.sequence: RRIRERPPRLPRPRPRPVTIPRP
shrunken log2 fold change: -0.233
--
primary.sequence: RRIRNRPPRLPRPRPRPNYNPRP
shrunken log2 fold change: -1.07
--
primary.sequence: RRIRGRPPRLPRPRPRPAGRPRP
shrunken log2 fold change: 0.692
--
primary.sequence: RRIRNRPPRLPRPRPRPQTCPRP
shrunken log2 fold change: 0.0139
--
primary.sequence: RRIRGRPPRLPRPRPRPHTNPRP
shrunken log2 fold change: 0.221

Continue with the next sequence.
"RRIRQRPPRLPRPRPRPMVNPRP" has a reported shrunken log2 fold change of -0.2

====

Below is a list of entries, each paired with its recorded shrunken log2 fold change value.
System: Escherichia coli TOP10
Assay: shrunken log2 fold change of peptide-encoding DNA abundance (4.5 h post-induction vs induction); higher = less antimicrobial activity (less host growth inhibition)
Details: time post-induction: 4.5 h; library: site-saturation at positions 5, 18, 19, 20
In your answer, state the number alone without any accompanying words.

primary.sequence: RRIRRRPPRLPRPRPRPSKHPRP
study.system: Escherichia coli TOP10
numeric.readout: -0.196

primary.sequence: RRIRLRPPRLPRPRPRPAVIPRP
study.system: Escherichia coli TOP10
numeric.readout: -0.339

primary.sequence: RRIRIRPPRLPRPRPRPVEVPRP
study.system: Escherichia coli TOP10
numeric.readout: 0.0961

primary.sequence: RRIRPRPPRLPRPRPRPPPAPRP
study.system: Escherichia coli TOP10
numeric.readout: 2.01

Sample "RRIRYRPPRLPRPRPRPSNTPRP" , system: Escherichia coli TOP10. Its shrunken log2 fold change is -1.06

====

System: Escherichia coli TOP10
Test: shrunken log2 fold change of peptide-encoding DNA abundance (4.5 h post-induction vs induction); higher = less antimicrobial activity (less host growth inhibition)
Settings: time post-induction: 4.5 h; library: site-saturation at positions 5, 18, 19, 20
Below is a list of entries, each paired with its recorded shrunken log2 fold change value.
In your answer, state the number alone without any accompanying words.

primary.sequence: RRIRNRPPRLPRPRPRPRWVPRP
shrunken log2 fold change: -0.172

primary.sequence: RRIRFRPPRLPRPRPRPTQNPRP
shrunken log2 fold change: 0.541

primary.sequence: RRIRPRPPRLPRPRPRPQAWPRP
shrunken log2 fold change: 0.179

primary.sequence: RRIRWRPPRLPRPRPRPAERPRP
shrunken log2 fold change: 0.0973

primary.sequence: RRIRKRPPRLPRPRPRPEQCPRP
shrunken log2 fold change: 0.025

"RRIRGRPPRLPRPRPRPIVHPRP" has a reported shrunken log2 fold change of 0.342

"RRIRNRPPRLPRPRPRPEHEPRP" has a reported shrunken log2 fold change of 0.127

"RRIRGRPPRLPRPRPRPYRSPRP" has a reported shrunken log2 fold change of -0.113

"RRIRSRPPRLPRPRPRPCRPPRP" has a reported shrunken log2 fold change of -0.584

"RRIRMRPPRLPRPRPRPVREPRP" has a reported shrunken log2 fold change of 1.19

"RRIRRRPPRLPRPRPRPQNPPRP" has a reported shrunken log2 fold change of 0.214

"RRIRARPPRLPRPRPRPRKIPRP" has a reported shrunken log2 fold change of 0.429

"RRIRARPPRLPRPRPRPMKEPRP" has a reported shrunken log2 fold change of -0.101

====

Test system: Escherichia coli TOP10;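 also: peptides expressed intracellularly from a pBAD plasmid library in pooled LB shake-flask culture, induced with 0.3% L-arabinose, DNA abundance read by NGS, three biological replicates, DESeq2 with apeglm shrinkage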
Test: shrunken log2 fold change of peptide-encoding DNA abundance (4.5 h post-induction vs induction); higher = less antimicrobial activity (less host growth inhibition)
Conditions: time post-induction: 4.5 h; library: site-saturation at positions 5, 18, 19, 20
measured.quantity: shrunken log2 fold change
In your answer, state the number alone without any accompanying words.

Here's what some known entries look like.
primary.sequence: RRIRARPPRLPRPRPRPTFAPRP
shrunken log2 fold change: 0.347

primary.sequence: RRIRSRPPRLPRPRPRPQQTPRP
shrunken log2 fold change: 0.0905

"RRIRSRPPRLPRPRPRPKYWPRP" has a reported shrunken log2 fold change of -0.166

"RRIRNRPPRLPRPRPRPDTDPRP" has a reported shrunken log2 fold change of 0.0251
